assayed.target: T1, β-galactosidase alone (UniProt P00722 2-1024 = β-galactosidase)
T1 construct: Negative control probe for library 1; also called beta-galactosidase
T1 sequence (P00722 2-1024 limits assumed): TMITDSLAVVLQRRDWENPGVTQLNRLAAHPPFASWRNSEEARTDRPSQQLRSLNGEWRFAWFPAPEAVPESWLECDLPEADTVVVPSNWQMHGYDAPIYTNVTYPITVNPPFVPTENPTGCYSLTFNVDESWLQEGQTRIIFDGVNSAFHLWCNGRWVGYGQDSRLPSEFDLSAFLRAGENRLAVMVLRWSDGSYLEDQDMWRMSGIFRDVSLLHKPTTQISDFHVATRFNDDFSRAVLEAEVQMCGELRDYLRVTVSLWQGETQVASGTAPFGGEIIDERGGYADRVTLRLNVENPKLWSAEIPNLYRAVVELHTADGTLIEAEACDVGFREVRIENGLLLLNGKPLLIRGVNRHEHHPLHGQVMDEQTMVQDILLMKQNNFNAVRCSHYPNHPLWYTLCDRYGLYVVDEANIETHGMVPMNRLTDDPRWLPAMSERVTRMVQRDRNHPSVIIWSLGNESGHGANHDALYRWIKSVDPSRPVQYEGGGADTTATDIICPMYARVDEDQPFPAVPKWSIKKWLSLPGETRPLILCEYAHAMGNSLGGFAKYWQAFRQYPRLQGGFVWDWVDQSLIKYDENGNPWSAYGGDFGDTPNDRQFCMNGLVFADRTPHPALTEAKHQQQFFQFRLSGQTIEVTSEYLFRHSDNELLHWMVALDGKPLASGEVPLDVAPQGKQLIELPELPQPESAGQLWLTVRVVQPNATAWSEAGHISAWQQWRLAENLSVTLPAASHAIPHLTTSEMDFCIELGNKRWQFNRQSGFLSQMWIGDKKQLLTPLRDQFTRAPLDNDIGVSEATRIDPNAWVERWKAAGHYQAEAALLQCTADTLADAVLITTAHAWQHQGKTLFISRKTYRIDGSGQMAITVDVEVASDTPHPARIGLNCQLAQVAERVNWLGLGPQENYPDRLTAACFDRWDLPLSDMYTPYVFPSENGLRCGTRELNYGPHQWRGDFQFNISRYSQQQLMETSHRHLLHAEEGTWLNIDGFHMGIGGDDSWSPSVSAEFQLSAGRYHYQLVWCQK
assay.procedure: SPOT peptide library 1 probed with beta-galactosidase alone, colorimetric
assay.endpoint: binding result

Use the examples below as a reference point.
MGYGMALSKINLHNR (SPOT peptide immobilised on cellulose membrane; also called spot #65) [M. catarrhalis TbpB N-lobe peptide mgygmalskinlhnr] = no binding
GPVGGVFYNGTTTAK (SPOT peptide immobilised on cellulose membrane; also called spot #80) [M. catarrhalis TbpB N-lobe peptide gpvggvfyngtttak] = no binding
FMTDVANRRNRFSEV (SPOT peptide immobilised on cellulose membrane; also called spot #83) [M. catarrhalis TbpB N-lobe peptide fmtdvanrrnrfsev] = no binding
DANIHGNRFRGSATA (SPOT peptide immobilised on cellulose membrane; also called spot #92) [M. catarrhalis TbpB N-lobe peptide danihgnrfrgsata] = no binding

AGWYYGASSKDEYNR (SPOT peptide immobilised on cellulose membrane; also called spot #85) [M. catarrhalis TbpB N-lobe peptide agwyygasskdeynr] yielded binding result of no binding

Memo: FSNLQDRHKGNVTKT (SPOT peptide immobilised on cellulose membrane; also called spot #90) [M. catarrhalis TbpB N-lobe peptide fsnlqdrhkgnvtkt] , reported binding result: no binding
